# measured-on: human urokinase-type plasminogen activator receptor (uPAR, CD87), cell-bound (human, UniProt Q03405 23-305)
# Sequence (Q03405 23-305): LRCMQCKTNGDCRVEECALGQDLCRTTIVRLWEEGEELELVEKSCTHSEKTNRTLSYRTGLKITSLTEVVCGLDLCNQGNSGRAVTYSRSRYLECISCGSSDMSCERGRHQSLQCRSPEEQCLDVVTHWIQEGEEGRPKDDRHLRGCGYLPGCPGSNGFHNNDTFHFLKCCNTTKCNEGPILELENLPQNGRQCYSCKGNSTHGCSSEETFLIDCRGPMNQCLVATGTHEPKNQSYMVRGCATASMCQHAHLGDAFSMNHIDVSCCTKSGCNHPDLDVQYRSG
# assay-comment: cell-based or functional assay
experimental-readout: Plasminogen activation inhibition (IC50, ug/ml) (µg/mL)
Your answer should be a plain number; it is taken to be in µg/mL.

- binder: "fully human monoclonal antibody 2.6.1 (ATCC Accession Number PTA-7475) (antibody, V domains shown, also called mAb 2.6.1) VH: EVQLVESGGGLIQPGGSLRLSCAASGFTVITNYMNWVRQAPGKGLEWVSIIYTGGSTSYADSVKGRFTVSRDNSKNTLYLHMNSLRVEDTAVYYCAREIAVAGYYGMDVWGQGTTVTVS VL: DIQMTQSPSSLSASVGDRVTITCRASQGIRNDLGWYQQKPGKAPKRLIYAASSLQSGVPSRFSGSGSGTEFTLTISSLQPEDFATYYCLQHNSYPLTFGGGTRVEIK"
  measurement-units: "µg/mL"
  reading: 0.073

From here, focus on the item given below.
Exam item: Quick one: Plasminogen activation inhibition (IC50, ug/ml) for anti-uPAR monoclonal antibody 1.113.2 (antibody, V domains shown) VH: QVQLVESGGGVVQPGRSLRLSCAASGFTFSSYGMHWVRQAPGKGLEWVAVIWYDGSNKYYADSVKGRFTISRDNSKNTLYLQMNSLRAEDTAVYYCARDLAALYYYYGMHVWGQGTTVTVSS VL: EIVMTQSPATLSVSPGERATLSCRASQSFSSNLAWYQQKPGQAPRLLIYGASTRATGIPARFSGSGSGTEFTLTISSLQSEDFAVYYCQQNNNWPRTFGQGTKVEIK ?
Marked response: 0.775

The reported numbers originate from patent US20080152587A1.
